Assay: Antagonist activity at CXCR3 in rat leukocytes assessed as inhibition of ITAC-induced cell migration by flow cytometry
Recorded IC50 by entry
PROPERTY NAME: IC50 (nM)

1) O=C([C@@H]1C=C2c3cccc4[nH]cc(c34)C[C@H]2N(C(=O)Nc2ccccc2)C1)N1CCCC1 ... 19
2) CCN(CC)C(=O)[C@@H]1C=C2c3cccc4[nH]cc(c34)C[C@H]2N(C(=O)Nc2ccccc2)C1 ... 74
3) O=C([C@@H]1C=C2c3cccc4[nH]cc(c34)C[C@H]2N(C(=O)Nc2ccccc2)C1)N1CCCCC1 ... 13
4) O=C([C@@H]1C=C2c3cccc4[nH]cc(c34)C[C@H]2N(C(=O)Nc2ccccc2)C1)N1CCOCC1 ... 78

Every entry's value here was drawn from BindingDB's records for doi:10.1016/j.bmcl.2011.06.070.
